test system: Staphylococcus aureus; assay: Antibacterial activity against methicillin-resistant Staphylococcus aureus PU 20 harboring c-ermA gene incubated for 16 to 20 hrs by CLSI based broth microdilution method; type: functional; conditions: time 16-20 hrs
EXPERIMENTAL READOUT: MIC (µg/mL)
Could you give me the number in µg/mL? Just the number is fine.

Lookup result for CC[C@H]1OC(=O)[C@H](C)[C@@H](OC(=O)Cc2ccccn2)[C@H](C)[C@@H](O[C@@H]2O[C@H](C)C[C@H](N(C)C)[C@H]2O)[C@](C)(OC(=O)CCN2CCN(c3c(F)cc4c(=O)c(C(=O)O)cn(C5CC5)c4c3OC)CC2C)C[C@@H](C)CN(C)[C@H](C)[C@@H](O)[C@]1(C)O (some centres not stated) ; measured MIC: 8

* * *

tested on: Streptococcus pneumoniae; assay: Selectivity ratio of MBC for Streptococcus pneumoniae PU 09 harboring mef gene to MIC for Streptococcus pneumoniae PU 09 harboring mef gene; type: functional
EXPERIMENTAL READOUT: Selectivity ratio
A bare number is all that is needed in reply.

Measured Selectivity ratio of "CC[C@H]1OC(=O)[C@H](C)[C@@H](OC(=O)CCN2CCN(c3cc4c(cc3F)c(=O)c(C(N)=O)cn4C3CC3)CC2)[C@H](C)[C@@H](O[C@@H]2O[C@H](C)C[C@H](N(C)C)[C@H]2O)[C@](C)(OC)C[C@@H](C)/C(=N\OCC#Cc2cncc(C(=O)NC)c2)[C@H](C)[C@H]2OC(=O)O[C@@]21C" : 4

Entry CC[C@H]1OC(=O)[C@H](C)[C@@H](O[C@H]2C[C@@](C)(OC)[C@@H](O)[C@H](C)O2)[C@H](C)[C@@H](O[C@@H]2O[C@H](C)C[C@H](N(C)C)[C@H]2O)[C@](C)(OC)C[C@@H](C)C(=O)[C@H](C)[C@@H](O)[C@]1(C)O [CLARITHROMYCIN] ; Selectivity ratio = 8

Short answer for "CC[C@H]1OC(=O)[C@H](C)[C@@H](OC(=O)NCCCc2ccc3c(c2)c(=O)c(C(=O)O)cn3C2CC2)[C@H](C)[C@@H](O[C@@H]2O[C@H](C)C[C@H](N(C)C)[C@H]2O)[C@](C)(OC)C[C@@H](C)/C(=N\OC)[C@H](C)[C@H]2OC(=O)O[C@@]21C" : Selectivity ratio was 4

Record "CC[C@H]1OC(=O)[C@H](C)[C@@H](OC(=O)CCNCCCCNc2cc3c(cc2F)c(=O)c(C(=O)O)cn3C2CC2)[C@H](C)[C@@H](O[C@@H]2O[C@H](C)C[C@H](N(C)C)[C@H]2O)[C@](C)(OC)C[C@@H](C)/C(=N\OC)[C@H](C)[C@H]2OC(=O)O[C@@]21C" , field Selectivity ratio: 1

The compound listed as "CC[C@H]1OC(=O)[C@H](C)[C@@H](OC(=O)CCNCCCNc2cc3c(=O)c(C(=O)O)cn(C4CC4)c3cc2Cl)[C@H](C)[C@@H](O[C@@H]2O[C@H](C)C[C@H](N(C)C)[C@H]2O)[C@](C)(OC)C[C@@H](C)/C(=N\OC)[C@H](C)[C@H]2OC(=O)O[C@@]21C" shows Selectivity ratio equal to 1

Reported Selectivity ratio ( "CC[C@H]1OC(=O)[C@H](C)[C@@H](OC(=O)CCN2CCN(c3cc4c(cc3F)c(=O)c(C(=O)O)cn4C3CC3)CC2)[C@H](C)[C@@H](O[C@@H]2O[C@H](C)C[C@H](N(C)C)[C@H]2O)[C@](C)(OC)C[C@@H](C)/C(=N\OCC#Cc2cncc3ccccc23)[C@H](C)[C@H]2OC(=O)O[C@@]21C" ) = 2

Value of measured Selectivity ratio for the entry "CC[C@H]1OC(=O)[C@H](C)[C@@H](OC(=O)CCNCCCCCCCCNc2cc3c(=O)c(C(=O)O)cn(C4CC4)c3cc2Cl)[C@H](C)[C@@H](O[C@@H]2O[C@H](C)C[C@H](N(C)C)[C@H]2O)[C@](C)(OC)C[C@@H](C)/C(=N\OC)[C@H](C)[C@H]2OC(=O)O[C@@]21C" : 1

The recorded Selectivity ratio for entry "CC[C@H]1OC(=O)[C@H](C)[C@@H](OC(=O)CCN2CCN(c3cc4c(cc3F)c(=O)c(C(=O)O)cn4C3CC3)CC2)[C@H](C)[C@@H](O[C@@H]2O[C@H](C)C[C@H](N(C)C)[C@H]2O)[C@](C)(OC)C[C@@H](C)/C(=N\OC)[C@H](C)[C@H]2OC(=O)O[C@@]21C" equals 4

The measured Selectivity ratio associated with CC[C@H]1OC(=O)[C@H](C)[C@@H](OC(=O)Cc2ccccn2)[C@H](C)[C@@H](O[C@@H]2O[C@H](C)C[C@H](N(C)C)[C@H]2O)[C@](C)(OC(=O)CCN2CCN(c3c(F)cc4c(=O)c(C(=O)O)cn(C5CC5)c4c3OC)CC2C)C[C@@H](C)CN(C)[C@H](C)[C@@H](O)[C@]1(C)O (stereo partly drawn) reads 4

Per the record, "CC[C@H]1OC(=O)[C@H](C)[C@@H](OC(=O)CCN2CCN(c3cc4c(cc3F)c(=O)c(C(=O)O)cn4CC)CC2)[C@H](C)[C@@H](O[C@@H]2O[C@H](C)C[C@H](N(C)C)[C@H]2O)[C@](C)(OC)C[C@@H](C)/C(=N\OCC#Cc2cncc(C(=O)NC)c2)[C@H](C)[C@H]2OC(=O)O[C@@]21C" has Selectivity ratio of 8

The compound identified as "CC[C@H]1OC(=O)[C@H](C)[C@@H](OC(=O)CCNCCCCNc2cc3c(cc2F)c(=O)c(C(=O)O)cn3C2CC2)[C@H](C)[C@@H](O[C@@H]2O[C@H](C)C[C@H](N(C)C)[C@H]2O)[C@](C)(OC)C[C@@H](C)/C(=N\OC/C=C/c2cncc(C(=O)NC)c2)[C@H](C)[C@H]2OC(=O)O[C@@]21C" registered its Selectivity ratio at 1

Lab note: measured Selectivity ratio of "CC[C@H]1OC(=O)[C@H](C)[C@@H](OC(=O)CCN2CCN(c3cc4c(cc3F)c(=O)c(C(=O)O)cn4C3CC3)CC2)[C@H](C)[C@@H](O[C@@H]2O[C@H](C)C[C@H](N(C)C)[C@H]2O)[C@](C)(OC)C[C@@H](C)/C(=N\OC/C=C/c2cncc(C(=O)NC)c2)[C@H](C)[C@H]2OC(=O)O[C@@]21C" was 4
